# intracellular Ca ion level-increasing activity (FLIPR) annotations
Test system: human OT7T175 (metastin receptor) (human, UniProt Q969F8 1-398)
Sequence (Q969F8 whole entry L364H): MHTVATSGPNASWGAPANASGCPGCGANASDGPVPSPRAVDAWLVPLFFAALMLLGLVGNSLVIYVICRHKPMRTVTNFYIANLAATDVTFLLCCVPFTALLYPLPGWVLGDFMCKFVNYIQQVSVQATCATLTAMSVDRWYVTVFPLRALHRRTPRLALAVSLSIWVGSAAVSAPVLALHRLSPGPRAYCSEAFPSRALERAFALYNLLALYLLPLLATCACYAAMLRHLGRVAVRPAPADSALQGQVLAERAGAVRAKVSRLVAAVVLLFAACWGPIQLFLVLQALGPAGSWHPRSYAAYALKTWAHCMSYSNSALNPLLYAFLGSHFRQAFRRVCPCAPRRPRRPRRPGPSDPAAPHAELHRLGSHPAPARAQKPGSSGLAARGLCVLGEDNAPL
Assay protocol: cell-based or functional assay
Square brackets hold non-standard residues; d marks the D form. Ends that are not written are not given here. Arg(Me) = CNC(=N)NCCC[C@H](N)C(=O)O; azaGly = NNC(=O)O

# Binder, Test result
measured = [
    ("[dY]NINSF[azaGly]L[Arg(Me)]F-NH2 (N-terminus assumed; SMILES CC[C@H](C)[C@H](NC(=O)[C@H](CC(N)=O)NC(=O)[C@H](N)Cc1ccc(O)cc1)C(=O)N[C@@H](CC(N)=O)C(=O)N[C@@H](CO)C(=O)N[C@@H](Cc1ccccc1)C(=O)NNC(=O)N[C@@H](CC(C)C)C(=O)N[C@@H](CCCNC(=N)NC)C(=O)N[C@@H](Cc1ccccc1)C(N)=O) [Compound No. 233: [D-Tyr1,Ile3,AzaGly7,Arg(Me)9]MS10]", "1 specific activity to metastin (1-54)"),
]

Value of intracellular Ca ion level-increasing activity (FLIPR) reported for the binder [dY][dW]NSFGL[Arg(Me)]F-NH2 (N-terminus assumed; SMILES CNC(=N)NCCC[C@H](NC(=O)[C@H](CC(C)C)NC(=O)CNC(=O)[C@H](Cc1ccccc1)NC(=O)[C@H](CO)NC(=O)[C@H](CC(N)=O)NC(=O)[C@@H](Cc1c[nH]c2ccccc12)NC(=O)[C@H](N)Cc1ccc(O)cc1)C(=O)N[C@@H](Cc1ccccc1)C(N)=O) [Compound No. 224: des(1)-[D-Tyr2,D-Trp3,Arg(Me)9]MS10] is 2 specific activity to metastin (1-54)

Value of intracellular Ca ion level-increasing activity (FLIPR) reported for the binder [dN]WNSFGL[Arg(Me)]F-NH2 [Compound No. 216: des(1)-[D-Asn2,Arg(Me)9]MS10] is 1 specific activity to metastin (1-54)

Value of intracellular Ca ion level-increasing activity (FLIPR) reported for the binder [dY][dW]NSF[azaGly]L[Arg(Me)]F-NH2 [Compound No. 242: des(1)-[D-Tyr2,D-Trp3,AzaGly7,Arg(Me)9]MS10] is 2 specific activity to metastin (1-54)

Value of intracellular Ca ion level-increasing activity (FLIPR) reported for the binder [dY]NWTSFGL[Arg(Me)]F-NH2 [Compound No. 208: [D-Tyr1,Thr4,Arg(Me)9]MS10] is 1 specific activity to metastin (1-54)

Value of intracellular Ca ion level-increasing activity (FLIPR) reported for the binder [dY]INSFGL[Arg(Me)]F-NH2 [Compound No. 228: des(1)-[D-Tyr2,Ile3,Arg(Me)9]MS10] is 5 specific activity to metastin (1-54)

Value of intracellular Ca ion level-increasing activity (FLIPR) reported for the binder [dY]WNSFGL[Arg(Me)]F-NH2 [Compound No. 217: des(1)-[D-Tyr2,Arg(Me)9]MS10] is 20 specific activity to metastin (1-54)
